# Test system: CN0375-F725-PDC multi-cell spheroids, viability
# protocolNotes: Anticancer human tumor CN0375-F725-PDC patient-derived colon carcinoma cell line growth inhibition [TAK]
# experimentalSetup: second compound 0.949 µM; first compound 0.001 µM; stronger effect = lower value
Collected viability, T/C values appear next to each entry.
Give the quantity in %, number only.

Answered examples (3):
INSERT INTO results (compound, observedmeasurement) VALUES
  ('CC(C)CC(NC(=O)C(Cc1ccccc1)NC(=O)c1cnccn1)B(O)O (centres undefined) + CC(C)NCC(C(=O)N1CCN(c2ncnc3c2C(C)CC3O)CC1)c1ccc(Cl)cc1', 90.3),
  ('CC(C)CC(NC(=O)CNC(=O)c1cc(Cl)ccc1Cl)B1OC(=O)CC(CC(=O)O)(C(=O)O)O1 (centres undefined) + CC(C)NCC(C(=O)N1CCN(c2ncnc3c2C(C)CC3O)CC1)c1ccc(Cl)cc1', 99.8),
  ('COC1CC2CCC(C)C(O)(O2)C(=O)C(=O)N2CCCCC2C(=O)OC(C(C)CC2CCC(OCCO)C(OC)C2)CC(=O)C(C)C=C(C)C(O)C(OC)C(=O)C(C)CC(C)C=CC=CC=C1C (centres undefined) + CC(C)NCC(C(=O)N1CCN(c2ncnc3c2C(C)CC3O)CC1)c1ccc(Cl)cc1', 94.8);

Record CC(C)n1nc(-c2ccc3oc(N)nc3c2)c2c(N)ncnc21 + CC(C)NCC(C(=O)N1CCN(c2ncnc3c2C(C)CC3O)CC1)c1ccc(Cl)cc1 / CN0375-F725-PDC multi-cell spheroids, viability, viability, T/C recorded as 99.5

====

# Tested on: CN0375-F725-PDC multi-cell spheroids, viability
# protocolNotes: Anticancer human tumor CN0375-F725-PDC cell line growth inhibition [TAK];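 further: spheroids exposed to drugs for seven days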;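 on viability, T/C: 100% = DMSO vehicle control wells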
# experimentalSetup: second compound 9.49 µM; first compound 0.316 µM; stronger effect = lower value
measurementName: viability, T/C (%)
Give the quantity in %, number only.

INSERT INTO measurements (molecule, measurementname, observedmeasurement) VALUES
  ('Cc1nc(NC(=O)N2CCCC2C(N)=O)sc1-c1ccnc(C(C)(C)C(F)(F)F)c1 (centres undefined) + CC(C)NCC(C(=O)N1CCN(c2ncnc3c2C(C)CC3O)CC1)c1ccc(Cl)cc1', 'viability, T/C', 88.1),
  ('CCCS(=O)(=O)Nc1ccc(F)c(C(=O)c2c[nH]c3ncc(-c4ccc(Cl)cc4)cc23)c1F + CC(C)NCC(C(=O)N1CCN(c2ncnc3c2C(C)CC3O)CC1)c1ccc(Cl)cc1', 'viability, T/C', 95.7),
  ('CC(C)(C)c1nc(-c2cccc(NS(=O)(=O)c3c(F)cccc3F)c2F)c(-c2ccnc(N)n2)s1 + CC(C)NCC(C(=O)N1CCN(c2ncnc3c2C(C)CC3O)CC1)c1ccc(Cl)cc1', 'viability, T/C', 105);

Next up:
Record COc1c(OCCCN2CCOCC2)ccc2c3n(c(=NC(=O)c4cnc(N)nc4)nc12)CCN3 + CC(C)NCC(C(=O)N1CCN(c2ncnc3c2C(C)CC3O)CC1)c1ccc(Cl)cc1 / CN0375-F725-PDC multi-cell spheroids, viability, viability, T/C recorded as 40.4

====

# System: CN0375-F725-PDC multi-cell spheroids, viability
# protocolNotes: Anticancer human tumor CN0375-F725-PDC cell line growth inhibition [TAK];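 further: spheroids exposed to drugs for seven days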;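 on viability, T/C: 100% = DMSO vehicle control wells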
# experimentalSetup: second compound 0.949 µM; first compound 0.1 µM; stronger effect = lower value
MET if viability, T/C is below 60%. NOT MET if not; exact matches included in NOT MET.

QUERY: Strictly below 60% in viability, T/C? COC1CC2CCC(C)C(O)(O2)C(=O)C(=O)N2CCCCC2C(=O)OC(C(C)CC2CCC(OCCO)C(OC)C2)CC(=O)C(C)C=C(C)C(O)C(OC)C(=O)C(C)CC(C)C=CC=CC=C1C (stereo unspecified) + CC(C)NCC(C(=O)N1CCN(c2ncnc3c2C(C)CC3O)CC1)c1ccc(Cl)cc1
RESULT: NOT MET

====

# System: CN0375-F725-PDC multi-cell spheroids, viability
# protocolNotes: Anticancer human tumor CN0375-F725-PDC cell line growth inhibition [TAK];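 further: spheroids exposed to drugs for seven days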
# experimentalSetup: curve of first compound; second compound 0.949 µM
measurementName: IC50

Answered examples (2):
INSERT INTO measurements (compound, measurementname, observedmeasurement) VALUES
  ('CC(=O)Nc1cccc(-n2c(=O)n(C3CC3)c(=O)c3c(Nc4ccc(I)cc4F)n(C)c(=O)c(C)c32)c1 + CC(C)NCC(C(=O)N1CCN(c2ncnc3c2C(C)CC3O)CC1)c1ccc(Cl)cc1', 'IC50', '0.00566 µM'),
  ('CCCS(=O)(=O)Nc1ccc(F)c(C(=O)c2c[nH]c3ncc(-c4ccc(Cl)cc4)cc23)c1F + CC(C)NCC(C(=O)N1CCN(c2ncnc3c2C(C)CC3O)CC1)c1ccc(Cl)cc1', 'IC50', '> 100 µM');

The reported IC50 of the compound Cc1nc(NC(=O)N2CCCC2C(N)=O)sc1-c1ccnc(C(C)(C)C(F)(F)F)c1 (stereo not given) + CC(C)NCC(C(=O)N1CCN(c2ncnc3c2C(C)CC3O)CC1)c1ccc(Cl)cc1 was > 10 µM

The reported IC50 of the compound CC(C)n1nc(-c2ccc3oc(N)nc3c2)c2c(N)ncnc21 + CC(C)NCC(C(=O)N1CCN(c2ncnc3c2C(C)CC3O)CC1)c1ccc(Cl)cc1 was > 0.1 µM

The reported IC50 of the compound Cn1cnc2c(F)c(Nc3ccc(Br)cc3Cl)c(C(=O)NOCCO)cc21 + CC(C)NCC(C(=O)N1CCN(c2ncnc3c2C(C)CC3O)CC1)c1ccc(Cl)cc1 was 0.222 µM

====

# Test system: CN0375-F725-PDC multi-cell spheroids, viability
# protocolNotes: Anticancer human tumor CN0375-F725-PDC cell line growth inhibition [TAK];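 further: spheroids exposed to drugs for seven days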;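 on viability, T/C: 100% = DMSO vehicle control wells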
# experimentalSetup: second compound 9.49 µM; first compound 0.000316 µM; stronger effect = lower value
measurementName: viability, T/C (%)
Give the quantity in %, number only.

INSERT INTO assay_data (molecule, testsystem, observedmeasurement) VALUES
  ('COC1CC2CCC(C)C(O)(O2)C(=O)C(=O)N2CCCCC2C(=O)OC(C(C)CC2CCC(OCCO)C(OC)C2)CC(=O)C(C)C=C(C)C(O)C(OC)C(=O)C(C)CC(C)C=CC=CC=C1C (centres undefined) + CC(C)NCC(C(=O)N1CCN(c2ncnc3c2C(C)CC3O)CC1)c1ccc(Cl)cc1', 'CN0375-F725-PDC multi-cell spheroids, viability', 83.3);

The reported viability, T/C of the molecule CC(C)CC(NC(=O)C(Cc1ccccc1)NC(=O)c1cnccn1)B(O)O (centres undefined) + CC(C)NCC(C(=O)N1CCN(c2ncnc3c2C(C)CC3O)CC1)c1ccc(Cl)cc1 was 87.2

The reported viability, T/C of the molecule CC(C)n1nc(-c2ccc3oc(N)nc3c2)c2c(N)ncnc21 + CC(C)NCC(C(=O)N1CCN(c2ncnc3c2C(C)CC3O)CC1)c1ccc(Cl)cc1 was 84.9

The reported viability, T/C of the molecule CC(C)CC(NC(=O)CNC(=O)c1cc(Cl)ccc1Cl)B1OC(=O)CC(CC(=O)O)(C(=O)O)O1 (centres undefined) + CC(C)NCC(C(=O)N1CCN(c2ncnc3c2C(C)CC3O)CC1)c1ccc(Cl)cc1 was 86

====

Collected viability, T/C values appear next to each entry.
# System: CN0375-F725-PDC multi-cell spheroids, viability
# protocolNotes: Anticancer human tumor CN0375-F725-PDC cell line growth inhibition [TAK];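 further: spheroids exposed to drugs for seven days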;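 on viability, T/C: 100% = DMSO vehicle control wells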
# experimentalSetup: second compound 30 µM; first compound 0.1 µM; stronger effect = lower value
Give the quantity in %, number only.

INSERT INTO measurements (compound, measurementname, observedmeasurement) VALUES
  ('CC(C)n1nc(-c2ccc3oc(N)nc3c2)c2c(N)ncnc21 + CC(C)NCC(C(=O)N1CCN(c2ncnc3c2C(C)CC3O)CC1)c1ccc(Cl)cc1', 'viability, T/C', 36.6);

The reported viability, T/C of the compound CC(C)CC(NC(=O)CNC(=O)c1cc(Cl)ccc1Cl)B1OC(=O)CC(CC(=O)O)(C(=O)O)O1 (stereo unspecified) + CC(C)NCC(C(=O)N1CCN(c2ncnc3c2C(C)CC3O)CC1)c1ccc(Cl)cc1 was 5.95

The reported viability, T/C of the compound COC1CC2CCC(C)C(O)(O2)C(=O)C(=O)N2CCCCC2C(=O)OC(C(C)CC2CCC(OCCO)C(OC)C2)CC(=O)C(C)C=C(C)C(O)C(OC)C(=O)C(C)CC(C)C=CC=CC=C1C (stereo unspecified) + CC(C)NCC(C(=O)N1CCN(c2ncnc3c2C(C)CC3O)CC1)c1ccc(Cl)cc1 was 68.5

The reported viability, T/C of the compound Cc1nc(NC(=O)N2CCCC2C(N)=O)sc1-c1ccnc(C(C)(C)C(F)(F)F)c1 (stereo unspecified) + CC(C)NCC(C(=O)N1CCN(c2ncnc3c2C(C)CC3O)CC1)c1ccc(Cl)cc1 was 82

The reported viability, T/C of the compound CC(C)(C)c1nc(-c2cccc(NS(=O)(=O)c3c(F)cccc3F)c2F)c(-c2ccnc(N)n2)s1 + CC(C)NCC(C(=O)N1CCN(c2ncnc3c2C(C)CC3O)CC1)c1ccc(Cl)cc1 was 102

The reported viability, T/C of the compound COc1c(OCCCN2CCOCC2)ccc2c3n(c(=NC(=O)c4cnc(N)nc4)nc12)CCN3 + CC(C)NCC(C(=O)N1CCN(c2ncnc3c2C(C)CC3O)CC1)c1ccc(Cl)cc1 was 47.8
